meta.source: patent US6825173B2

TARGET DESC: green coffee bean α-D-galactosidase (EC 3.2.1.22) (Coffea arabica)
Construct: desalted green coffee bean α-D-galactosidase (EC 3.2.1.22); purchased Boehringer Mannheim Corporation, Indianapolis, Ind; host or cells: green coffee bean
Sequence (Q42656 16-378): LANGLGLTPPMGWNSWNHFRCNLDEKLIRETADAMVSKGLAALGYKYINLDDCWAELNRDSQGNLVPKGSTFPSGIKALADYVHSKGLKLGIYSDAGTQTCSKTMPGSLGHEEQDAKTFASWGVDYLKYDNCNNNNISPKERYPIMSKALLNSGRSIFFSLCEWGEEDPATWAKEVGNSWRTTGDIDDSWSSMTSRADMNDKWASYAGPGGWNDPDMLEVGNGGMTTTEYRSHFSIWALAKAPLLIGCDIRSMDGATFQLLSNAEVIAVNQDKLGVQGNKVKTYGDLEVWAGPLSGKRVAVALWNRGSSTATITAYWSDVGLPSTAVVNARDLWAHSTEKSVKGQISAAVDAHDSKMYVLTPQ
ASSAY PROCEDURE: Enzymatic hydrolysis with α-galactosidase
Assay type: biochemical
TEST SETTINGS: 1.25 units desalted enzyme in 200 μL water at 22° C. (Examples 22, 23); products by GC
VALUE TYPE: hydrolysis by α-galactosidase (in words)

{"COMPOUND": "OCC1O[C@H](OC2C(O)[C@H](O)C(O)C(O)[C@@H]2O)C(O)C(O)[C@H]1O (stereo partly shown) [Fagopyritol B1]", "hydrolysis by α-galactosidase (in words)": "hydrolyzed"}
{"COMPOUND": "OC[C@H]1O[C@H](OC[C@H]2O[C@H](O[C@]3(CO)O[C@H](CO)[C@@H](O)[C@@H]3O)[C@H](O)[C@@H](O)[C@@H]2O)[C@H](O)[C@@H](O)[C@H]1O [Raffinose, reference compound]", "hydrolysis by α-galactosidase (in words)": "hydrolyzed"}
{"COMPOUND": "OCC1O[C@H](OCC2O[C@@H](O[C@H]3C(O)C(O)[C@H](O)C(O)C3O)C(O)C(O)[C@H]2O)C(O)C(O)[C@H]1O (stereo partly shown) [Fagopyritol A2]", "hydrolysis by α-galactosidase (in words)": "hydrolyzed"}
{"COMPOUND": "OCC1OC(OCC2OC(OCC3OC(OC4C(O)C(O)C(O)C(O)C4O)C(O)C(O)C3O)C(O)C(O)C2O)C(O)C(O)C1O (stereo not shown) [TGMI]", "hydrolysis by α-galactosidase (in words)": "completely hydrolyzed"}
{"COMPOUND": "OCC1O[C@H](OCC2O[C@H](OC3C(O)[C@H](O)C(O)C(O)[C@@H]3O)C(O)C(O)[C@H]2O)C(O)C(O)[C@H]1O (stereo partly shown) [Fagopyritol B2]", "hydrolysis by α-galactosidase (in words)": "hydrolyzed"}
{"COMPOUND": "OC[C@H]1O[C@H](OC[C@H]2O[C@H](O[C@@H]3[C@@H](O)[C@H](O)[C@@H](O)[C@H](O)[C@@H]3O)[C@H](O)[C@@H](O)[C@H]2O)[C@H](O)[C@@H](O)[C@H]1O [digalactosyl myo-inositol]", "hydrolysis by α-galactosidase (in words)": "completely hydrolyzed"}

Now consider the entry below.
Reading of hydrolysis by α-galactosidase (in words) for OCC1O[C@@H](O[C@H]2C(O)C(O)[C@H](O)C(O)C2O)C(O)C(O)[C@H]1O (stereo partly shown) [Fagopyritol A1] with green coffee bean α-D-galactosidase (EC 3.2.1.22) (Coffea arabica): hydrolyzed
